- testTarget: human recombinant adrenergic α2A receptor (Homo sapiens, UniProt P08913)
- Construct: expressed in transfected cells; host or cells: insect Sf9 cells
- Sequence (P08913 whole entry): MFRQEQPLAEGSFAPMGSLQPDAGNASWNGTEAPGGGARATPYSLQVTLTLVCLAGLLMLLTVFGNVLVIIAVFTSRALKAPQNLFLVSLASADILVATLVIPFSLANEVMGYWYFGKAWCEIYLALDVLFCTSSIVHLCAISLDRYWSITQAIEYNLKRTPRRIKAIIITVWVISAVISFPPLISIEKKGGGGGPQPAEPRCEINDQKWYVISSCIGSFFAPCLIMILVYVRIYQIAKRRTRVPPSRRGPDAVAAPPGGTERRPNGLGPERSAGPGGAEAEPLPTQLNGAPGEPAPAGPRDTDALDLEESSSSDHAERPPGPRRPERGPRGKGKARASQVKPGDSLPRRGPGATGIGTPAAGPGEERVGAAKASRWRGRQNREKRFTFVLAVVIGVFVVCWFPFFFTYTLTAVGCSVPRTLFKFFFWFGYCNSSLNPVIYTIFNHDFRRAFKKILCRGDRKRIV
- assayDetails: Radioligand binding, adrenergic α2A ([3H]MK-912)
- testParameters: read-out: Percentage inhibition of ligand binding, Adrenergic α2A (0.1 μM), compound at 0.1 μM; [3H]MK-912; repeat datapoints each shown
Label yes (1) when inhibition at 0.1 µM >= 60%; otherwise no (0).

{"columns": ["molecule", "classAssignment"],
 "data": [
  ["CN1CCc2c(c3ccc(Cl)cc3n2CCc2ccccc2)C1", "yes (1)"],
  ["Cc1ccc2c(c1)c1c(n2CCc2ccc(F)cc2)CCN(C)C1", "yes (1)"],
  ["C/C(=C\\n1c2c(c3cc(C)ccc31)CCN(C)CC2)c1ccccc1F", "yes (1)"],
  ["C/C(=C\\n1c2c(c3cc(C)ccc31)CN(C)CC2)c1sccc1C", "yes (1)"],
  ["Cc1cnc2c(c1)c1c(n2CC(O)c2ccc(C(N)=O)nc2)CCN(C)C1 (stereo not drawn)", "no (0)"],
  ["Cc1ccc2c(c1)c1c(n2CC(O)c2cccnc2)CCN2CCCC12 (stereo not drawn)", "yes (1)"],
  ["Cc1ccc2c(c1)c1c(n2CC(N)c2ccncc2)CCN(C)CC1 (single isomer, unassigned) [154b]", "no (0)"],
  ["Cc1ccc2c(c1)c1c(n2C2=C(c3ccc4c(ccn4C)c3)CCC2)CCN(C)C1", "yes (1)"],
  ["CN1CCc2c(c3ccccc3n2CCc2ccccc2)C1", "yes (1)"],
  ["Cc1ccc2c(c1)c1c(n2CC(O)c2ccncc2C)CCN(C)C1 (stereo not drawn) [133a]", "no (0)"],
  ["C/C(=C\\n1c2c(c3cc(C)ccc31)C1CCCN1CC2)c1ccc(F)cc1 (stereo not drawn) [194a]", "yes (1)"],
  ["C/C(=C\\n1c2c(c3cc(C)ccc31)CCN(C)CC2)c1ccncc1", "no (0)"],
  ["C=C(Cn1c2c(c3cc(C)ccc31)CN(C)CC2)c1cccnc1", "no (0)"],
  ["Cc1ccc2c(c1)c1c(n2CC(C)(O)c2ccc(C(N)=O)nc2)CCN(C)C1 (single isomer, unassigned) [II-136a]", "no (0)"],
  ["Cc1ccc(C(O)Cn2c3c(c4cc(C)ccc42)CN(C)CC3)cc1 (stereo not drawn) [183a]", "no (0)"]
]}
